Origin of the recorded values: ChEMBL document CHEMBL4043182

- Test system: L929
- test_summary: Induction of oxidative stress in mouse L929 cells assessed as GSH to GSSG ratio at 5 uM after 24 hrs by spectrophotometric analysis (reference value: 3.55 +/- 0.51 microg/mg)
- Format: cell-based
- measurement_parameters: l929, 24 h
measured_parameter: Activity
Give the value as a plain number.

For the record CC1(C)OC2=C(C(=O)C(=O)c3ccccc32)C1n1cc(CNC2=[N+]3C(=C(c4ccccc4)c4ccc(Cl)n4[B-]3(F)F)C=C2)nn1 (stereo unspecified) , what value of Activity is listed for L929?
0.33

====

- System: PC-3
- test_summary: Cytotoxicity against human PC3 cells after 24 hrs in absence of GSH-OEt by MTT assay
- Format: functional, cell-based
- measurement_parameters: PC-3, 24 h
pIC50: −log10 of the molar value.
# pIC50 per record follows

Field request: pIC50 | item: CC1(C)CC(n2cc(CNc3ccc4n3[B-](F)(F)[N+]3=C(Cl)C=CC3=C4c3ccccc3)nn2)C2=C(O1)C(=O)c1ccccc1C2=O (centres undefined)
< 4.40

Suppose we examine the compound O=C1C2=C(OC(Cn3cc(CNc4ccc5n4[B-](F)(F)[N+]4=C(Cl)C=CC4=C5c4ccccc4)nn3)C2)C(=O)c2ccccc21 (centres undefined) ; what pIC50 value has been reported?
< 4.40

Given CC1(C)OC2=C(C(=O)c3ccccc3C2=O)C1n1cc(CNC2=[N+]3C(=C(c4ccccc4)c4ccc(Cl)n4[B-]3(F)F)C=C2)nn1 (centres undefined) , state its recorded pIC50.
< 4.40

# ---- query compound ----
What value of pIC50 has been reported for the following compound? CC1(C)OC2=C(C(=O)C(=O)c3ccccc32)C1n1cc(CNC2=[N+]3C(=C(c4ccccc4)c4ccc(Cl)n4[B-]3(F)F)C=C2)nn1 (centres undefined)
5.35

====

- Test system: PC-3
- test_summary: Cytotoxicity against human PC3 cells after 24 hrs in presence of GSH-OEt by MTT assay
- Format: functional, cell-based
- measurement_parameters: PC-3, 24 h
measured_parameter: IC50

The examples below pair each entry with its known result.
Query (compound): CC1(C)CC(n2cc(CNc3ccc4n3[B-](F)(F)[N+]3=C(Cl)C=CC3=C4c3ccccc3)nn2)C2=C(O1)C(=O)c1ccccc1C2=O (centres undefined) ; field requested: IC50
> 40 µM

Entry under review: O=C1C2=C(OC(Cn3cc(CNc4ccc5n4[B-](F)(F)[N+]4=C(Cl)C=CC4=C5c4ccccc4)nn3)C2)C(=O)c2ccccc21 (centres undefined) . Reported IC50?
> 40 µM

New cases:
Requested read-out: IC50. Entry: CC1(C)OC2=C(C(=O)C(=O)c3ccccc32)C1n1cc(CNC2=[N+]3C(=C(c4ccccc4)c4ccc(Cl)n4[B-]3(F)F)C=C2)nn1 (centres undefined)
15.8 µM

I'd like to know its IC50. The compound in question is CC1(C)OC2=C(C(=O)c3ccccc3C2=O)C1n1cc(CNC2=[N+]3C(=C(c4ccccc4)c4ccc(Cl)n4[B-]3(F)F)C=C2)nn1 (centres undefined)
> 40 µM
